Target: T1, recombinant, soluble human ASGR-1 (human, UniProt P07306 62-291)
T1 construct: biotinylated in the binning assay; also called soluble huASGR-1; Soluble ASGR-1 (Amgen)
T1 sequence: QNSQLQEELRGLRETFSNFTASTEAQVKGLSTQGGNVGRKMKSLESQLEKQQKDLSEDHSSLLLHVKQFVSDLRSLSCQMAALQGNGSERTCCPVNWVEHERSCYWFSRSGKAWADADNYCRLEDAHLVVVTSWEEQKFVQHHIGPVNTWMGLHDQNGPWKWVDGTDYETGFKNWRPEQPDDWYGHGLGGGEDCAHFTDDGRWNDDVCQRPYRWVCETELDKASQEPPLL
Assay: Octet BLI dissociation, pH 5.6 minus calcium
Rule: % Change Compared to pH 7.4 + Calcium under 20% gives label 0, otherwise label 1.

{"columns": ["binder", "cat"],
 "data": [
  ["63G7 (antibody, V domains shown, hybridoma mAb) VH: EVQLVESGGGLVQPGGSLRLSCAASGFTFSSYSMNWVRQAPGKGLEWVSYISSSTSTIYYAASVKGRFTISRDNAKNSLYLQMNSLRDEDTAVYYCARDHRYYDSSGYYSDAFDIWGQGTMVTVSS VL: NFMLTQPHSVSESPGKTVTISCTRSNGSIVSNYVQWYQQRPGSSPTTMIYEDSRRPSGVPDRFSGSIDSSSNSASLTISGLKTEDEADYSCQSYDGINVVFGGGTKLTVL", "label 1"],
  ["47C1 (antibody, V domains shown, hybridoma mAb) VH: QVQLVESGGGVVQPGRSLRLSCAASGFTFSDYGMHWVRQTPGKGLEWVAVIWYDGSNKYYADSVKGRFTISRDNSKNTLFLQMNSLRDEDTAVYYCARRYSRSWVGGMDVWGQGTTVTVSS VL: DIVMTQTPLSLSVTPGQPASISCTSSQSLLHSEGKTYLYWYLQKPGQPPQLLIYEVSNRFSGVPDRFSGSGSGTDFTLKISRVEAEDVGVFYCMQSIQLPWTFGQGTKVEIK", "label 0"],
  ["65F10 (antibody, V domains shown, hybridoma mAb) VH: QVQLVQSGAEVKKPGASVKVSCKASGYTFTGYHMHWVRQAPGQGLEWMGWINPNNGGTSYAQKFQDRVNMTRDTSISTAYMELSRLRSDDTAVYYCARDSRSSWDYWGQGTLVTVSS VL: DIQMTQSPSSVSASVGDRVTITCRGGQGISTWLAWYQQKPGKAPKLLIYAASILQSGVPSRFRGRGSGTDFTLTISSLQPEDFATYYCQQGNIFPFTFGRGTKVDIK", "label 1"],
  ["74G6 (antibody, V domains shown, hybridoma mAb) VH: QVQLVESGGGVVQPGRSLRLSCAASGFTFSSYGMHWVRQAPGKGLEWVAVIWYDGSNKNYADSVKGRFTISRDNSKNTLYLQMNSLRAEDTAVYYCARDGSYGYDGLDYWGQGTLVTVSS VL: DIQMTQSPSSLSASVGDRVTITCRASQGIGKYLAWFQQKPGKAPKSLIYTTSSLQSGAPSKFSGSGSGTDFTLTISSLQYEDFATYYCQQYSNYPLTFGGGTKVEIN", "label 0"],
  ["192H10 (antibody, V domains shown, hybridoma mAb) VH: QVQLVESGGGVVQPGRSLRLSCAASGFTFSSYGMHWVRQAPGKGLEWVAVIWYDGSNKNYADSVKGRFTISRDNSKNTLYLQMNSLRAEDTAMYYCARDQGVGYDGLDVWGQGTSVTVSS VL: DIQMTQSPSSLSASVGDRVTITCRASQGIGKYLAWFQQKPGKAPKSLIYAASSLQSGVPSKFSGSGYGTDFTLTISSLQPENFATYYCQQYSTYPLTFGGGTKVEIK", "label 0"],
  ["191A10 (antibody, V domains shown, hybridoma mAb) VH: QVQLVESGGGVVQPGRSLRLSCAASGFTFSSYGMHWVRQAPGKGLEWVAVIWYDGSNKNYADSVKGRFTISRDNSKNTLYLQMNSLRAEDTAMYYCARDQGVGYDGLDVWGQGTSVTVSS VL: DIQMTQSPSSLSASVGDRVTITCRASQGIGKYLAWFQQKPGKAPKSLIYAASSLQSGVPSKFSGSGYGTDFTLTISSLQPENFAIYYCQQYSTYPLTFGGGTKVEIK", "label 0"],
  ["7E11 (antibody, V domains shown, hybridoma mAb) VH: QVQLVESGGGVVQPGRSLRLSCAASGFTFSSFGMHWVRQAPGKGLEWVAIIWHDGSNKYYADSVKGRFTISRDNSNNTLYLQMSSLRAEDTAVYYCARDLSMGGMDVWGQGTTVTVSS VL: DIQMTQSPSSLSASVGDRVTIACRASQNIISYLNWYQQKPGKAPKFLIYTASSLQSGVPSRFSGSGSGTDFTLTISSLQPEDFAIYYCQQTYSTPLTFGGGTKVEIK", "label 0"],
  ["72G9 (antibody, V domains shown, hybridoma mAb) VH: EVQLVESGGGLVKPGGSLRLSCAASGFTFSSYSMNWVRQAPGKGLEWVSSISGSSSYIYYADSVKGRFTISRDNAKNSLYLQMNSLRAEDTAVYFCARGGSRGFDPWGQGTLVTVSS VL: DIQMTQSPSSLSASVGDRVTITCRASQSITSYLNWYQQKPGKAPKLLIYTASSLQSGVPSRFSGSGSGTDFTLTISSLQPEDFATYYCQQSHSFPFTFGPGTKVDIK", "label 0"],
  ["173C11 (antibody, V domains shown, hybridoma mAb) VH: QVQLVESGGGVVQPGRSLRLSCAASGFTFSSYGIHWVRQAPGKGLEWVALIFYDGSNKYYADSVKGRFTISRDNSKNTLYLHMSSLRAEDTAVYYCARRYSSSWSGGMDVWGQGTTVTVSS VL: DIVMTQTPLSLSVTPGQPASISCKSSQSLLHSEGKTYLYWYLQKPGQPPQLLIYEVSHRFSGVPDRFSGSGSGTDFTLKISRVEAEDVGVYYCMQSIQLLTFGGGTKVEIK", "label 1"],
  ["64G12 (antibody, V domains shown, hybridoma mAb) VH: EVQLLESGGGLVQPGGSLRLSCAASGFTFSSNAMSWVRQAPGKGLEWVSVISGSGGSTYYADSVKGRFTISRDNSKNTLYLQMNSLRAEDTALYYCAKRNYDDAFDIWGQGTMVTVSS VL: DIQMTQSPSSVSASVGDRVTITCRASQNITTWLAWYQQKPGKAPKLLISAASSLQSGVPSRFSGSGSGTDFTLTISSLQPEDFATYICQQANSFPFTFGPGTKLDIK", "label 1"]
]}
